- Test system: ALOMY
- EXPERIMENTAL_DETAILS: Pre-emergence herbicidal action against ALOMY
- Assay type: in vivo, Alopecurus myosuroides
- CONDITION_LABEL: 80 g/ha, pre-emergence, scored visually after 3 weeks vs untreated controls (100% = plants have died, 0% = like control plants)
MEASUREMENT_KIND: Pre-emergence action against ALOMY (herbicidal activity) (%)

* CCn1nnnc1NC(=O)c1ccc(C(F)F)c(C(=O)NC2CC2)c1OC | 100
* Cc1c(C(=O)Nc2nnnn2C)ccc(C(F)(F)F)c1C(=O)NCC1CC1 | 90
* CNC(=O)c1c(C(F)F)ccc(C(=O)Nc2nnco2)c1Cl | 80
* CCc1c(C(=O)Nc2nnnn2CC)ccc(C(F)(F)F)c1C(=O)NC1CC1 | 90
* CCn1nnnc1NC(=O)c1ccc(C(F)F)c(C(=O)NCC(F)(F)F)c1Br | 90
* CCn1nnnc1NC(=O)c1ccc(C(F)(F)F)c(C(=O)NCC(F)F)c1C1CC1 | 80
* CCc1c(C(=O)Nc2nnnn2CC)ccc(C(F)(F)F)c1C(=O)NCC(F)F | 90
* CCc1c(C(=O)Nc2nnnn2C)ccc(C(F)(F)F)c1C(=O)NCC(F)F | 100

* * *

- Tested on: SETVI
- EXPERIMENTAL_DETAILS: Post-emergence herbicidal action against SETVI
- Assay type: in vivo, Setaria viridis
- CONDITION_LABEL: Setaria viridis, 504 h, dosage 5 g/ha
MEASUREMENT_KIND: pest or weed control at 5 g/ha (%)

* CCn1nnnc1NC(=O)c1ccc(Br)c(C(=O)NC2CC2)c1Cl | 90
* CNC(=O)c1c(C(F)F)ccc(C(=O)Nc2nnnn2C)c1Br | 90
* CCNC(=O)c1c(C(F)(F)F)ccc(C(=O)Nc2nnnn2C)c1C | 100
* CCc1c(C(=O)Nc2nnnn2C)ccc(C(F)F)c1C(=O)NC | 90
* Cn1nnnc1NC(=O)c1ccc(C(F)(F)F)c(C(=O)NC2CC2)c1Br | 100
* CCn1nnnc1NC(=O)c1ccc(C(F)(F)F)c(C(=O)NC2CC2)c1C1CC1 | 80
* CCn1nnnc1NC(=O)c1ccc(C(F)(F)F)c(C(=O)NC2CC2)c1Cl | 90
* CCn1nnnc1NC(=O)c1ccc(C(F)(F)F)c(C(=O)NC)c1Cl | 100
* CCNC(=O)c1c(C(F)(F)F)ccc(C(=O)Nc2nnnn2C)c1CC | 90
* CCn1nnnc1NC(=O)c1ccc(C(F)F)c(C(=O)NC(C)C)c1C | 80
* COc1c(C(=O)Nc2nnnn2C)ccc(C(F)(F)F)c1C(=O)NC1CC1 | 100
* CCNC(=O)c1c(Cl)ccc(C(=O)Nc2nnnn2CC)c1Br | 80
* CCNC(=O)c1c(Br)ccc(C(=O)Nc2nnnn2CC)c1Br | 90
* Cc1nnc(NC(=O)c2ccc(C(F)(F)F)c(C(=O)NC(C)C)c2C)o1 | 80
* CCn1nnnc1NC(=O)c1ccc(Cl)c(C(=O)NC2CC2)c1Br | 90

* * *

- Test system: AVEFA
- EXPERIMENTAL_DETAILS: Pre-emergence herbicidal action against AVEFA
- Assay type: in vivo, Avena fatua
- CONDITION_LABEL: Avena fatua, 504 h; 80 g/ha, pre-emergence
MEASUREMENT_KIND: pest or weed control at 80 g/ha

* CCc1c(C(=O)Nc2nnnn2C)ccc(C(F)F)c1C(=O)NC [Example 1-277] | 90%
* CCNC(=O)c1c(C(F)(F)F)ccc(C(=O)Nc2nnnn2CC)c1Cl [Example 2-130] | 100%
* CCNC(=O)c1c(C(F)(F)F)ccc(C(=O)Nc2nnnn2CC)c1C1CC1 [Example 2-287] | 80%
* CCNC(=O)c1c(Cl)ccc(C(=O)Nc2nnnn2C)c1Br [Example 1-350] | 90%
* CCn1nnnc1NC(=O)c1ccc(C(F)(F)F)c(C(=O)NC2CC2)c1C1CC1 [Example 2-288] | 90%
